Reported Inhibition Rate of PAI-1 Activity (%) values for the following compounds.
target: recombinant human PAI-1 (Homo sapiens); construct: purchased Molecular Innovations, Inc; experiment: Test Example 1: human PAI-1 inhibitory activity (tPA fluorogenic substrate, pH 7.5 Tris buffer); assay type: biochemical; details: Compound Concentration 5 μM; Tris buffer
Sequence (P05121 24-402): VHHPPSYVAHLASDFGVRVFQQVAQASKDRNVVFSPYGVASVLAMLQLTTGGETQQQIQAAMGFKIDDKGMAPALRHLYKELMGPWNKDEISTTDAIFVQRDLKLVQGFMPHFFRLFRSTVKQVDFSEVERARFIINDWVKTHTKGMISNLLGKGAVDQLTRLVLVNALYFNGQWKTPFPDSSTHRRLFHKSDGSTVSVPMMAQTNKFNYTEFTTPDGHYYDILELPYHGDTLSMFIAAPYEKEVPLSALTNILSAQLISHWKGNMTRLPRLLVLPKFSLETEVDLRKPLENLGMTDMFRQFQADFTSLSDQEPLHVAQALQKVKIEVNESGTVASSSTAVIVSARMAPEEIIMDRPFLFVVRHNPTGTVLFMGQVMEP
Form entry: value (%) — number only.

INSERT INTO measurements (compound, target_or_system, reported) VALUES
  ('CC(C)(C)c1ccc(Oc2ccc(Oc3ccc(OC(F)(F)F)cc3)cc2C=CC(=O)O)cc1 [Compound 99]', 'recombinant human PAI-1 (Homo sapiens)', 31),
  ('CCCOc1ccc(-c2ccc(OC(F)(F)F)cc2)cc1N(CCCc1ccccc1)C(=O)C(=O)O [Compound 234]', 'recombinant human PAI-1 (Homo sapiens)', 59),
  ('CC(C)(C)c1ccc(COc2cc(-c3ccc(OC(F)(F)F)cc3)cc(O)c2OCC(=O)O)cc1 [Compound 546]', 'recombinant human PAI-1 (Homo sapiens)', 61),
  ('CC(C)(C)c1ccc(COc2ccc(-c3ccc(F)cc3)cc2/C=C/C(=O)O)cc1 [Compound 33]', 'recombinant human PAI-1 (Homo sapiens)', 23),
  ('COc1ccccc1-c1ccc(OCc2ccc(C(C)(C)C)cc2)c(CCC(=O)O)c1 [Compound 56]', 'recombinant human PAI-1 (Homo sapiens)', 22),
  ('CC(C)(C)c1ccc(-c2ccc(N(Cc3cccc(OC(F)(F)F)c3)C(=O)C(=O)O)cc2)cc1 [Compound 203]', 'recombinant human PAI-1 (Homo sapiens)', 69),
  ('CC(C)(C)c1ccc(CN(C(=O)C(=O)O)c2ccccc2OCc2ccc(OC(F)(F)F)cc2)cc1 [Compound 620]', 'recombinant human PAI-1 (Homo sapiens)', 41),
  ('O=C(O)C=Cc1c(Oc2ccc(OC(F)(F)F)cc2)cccc1Oc1ccc(OC(F)(F)F)cc1 [Compound 97]', 'recombinant human PAI-1 (Homo sapiens)', 30);

Task item: Give its Inhibition Rate of PAI-1 Activity (%) value. Item: CCCCc1ccc(CN(C(=O)C(=O)O)c2ccc(-c3ccc(OC(F)(F)F)cc3)cc2)cc1 [Compound 167]
Reply: 37

Task item: Do the same for CC(C)(C)c1ccc(CN(C(=O)C(=O)O)c2ccc(-c3ccc(OC(F)(F)F)cc3)cc2)cc1 [Compound 133] please
Reply: 80

Task item: Can you check CC(C)(C)c1ccc(CN(C(=O)C(=O)O)c2ccc(Sc3ccc(OC(F)(F)F)cc3)cc2)cc1 [Compound 621] next?
Reply: 67

Task item: // query: CC(C)(C)c1ccc(COc2ccc(-c3cccc(OC(F)(F)F)c3)cc2CCC(=O)O)cc1 [Compound 64]
Reply: 49

Task item: Field entry: Cc1c(-c2ccc(OC(F)(F)F)cc2)cccc1N(Cc1ccc(C(C)(C)C)cc1)C(=O)C(=O)O [Compound 177]
Reply: 43

Task item: # iterate: CCCOc1ccc(-c2ccc(OC(F)(F)F)cc2)cc1N(CCCCc1ccccc1)C(=O)C(=O)O [Compound 236]
Reply: 61

Task item: Try the compound CC(C)(C)c1ccc(COc2ccc(OCc3ccc(OC(F)(F)F)cc3)cc2/C=C/C(=O)O)cc1 [Compound 413]
Reply: 38

Task item: Now consider CC(C)(C)c1ccc(N(C(=O)C(=O)O)c2cccc(Oc3ccc(OC(F)(F)F)cc3)c2)cc1 [Compound 170] .
Reply: 38

Task item: And then O=C(O)CCc1cc(-c2ccc(OC(F)(F)F)cc2)ccc1OCc1ccccc1 [Compound 3] , what is it?
Reply: 35
